# CC50 at 216 h values compiled below
- protocol-text: in vitro
- Type: cell-based
- run-conditions: human, cem cells
- Experimental: These tests involved plating of susceptible human host cells which are syncytium-sensitive with and without virus in microculture plates, adding various concentrations of the test compound, incubating the plates for 9 days (during which time infected, non-drug treated control cells are largely or totally destroyed by the virus), and then determining the number of remaining viable cells using a colorimetric endpoint. […]

{"columns": ["compound", "CC50 at 216 h"],
 "data": [
  ["CCCCN1C[C@H](O)[C@@H](O)[C@H](O)[C@H]1CO [n-Bu, N-butyl DNJ, reference compound]", "> 500 µg/mL"],
  ["CCC(CC)CN1C[C@](C)(O)[C@@H](O)[C@H](O)[C@H]1CO", "349 µg/mL"]
]}
